src = patent US20140343001A1

- targetOfAssay: hLDH5 (LDH-A) (Homo sapiens, UniProt P00338)
- methodNotes: Enzyme inhibition of human lactate dehydrogenase isoform 5
- testSettings: ranges of values; room temperature, pH 7.4; read-out: inhibitory activity against hLDH5 (IC50)
IC50 values, listed per item

molecule="O=C(OCc1ccc(Cl)cc1)c1cc2c(C(F)(F)F)cc(-c3ccc(Cl)cc3Cl)cc2n1O [Example 63]" reportedmetric=IC50 valueobserved="10 to 1000 nM"
molecule="COC(=O)c1c(C)c2c(C(F)(F)F)cc(-c3ccc(Cl)cc3Cl)cc2n1O [Example 20]" reportedmetric=IC50 valueobserved="1000 to 10000 nM"
molecule="O=C(OCc1ccc(F)cc1)c1cc2c(C(F)(F)F)cc(-c3ccc(Cl)cc3Cl)cc2n1O [Example 62]" reportedmetric=IC50 valueobserved="10 to 1000 nM"
molecule="CCOC(=O)c1cc2c(C(F)(F)F)cc(-c3ccccc3)cc2n1O[C@@H]1O[C@H](COC(C)=O)[C@@H](OC(C)=O)[C@H](OC(C)=O)[C@H]1OC(C)=O [Example 7]" reportedmetric=IC50 valueobserved="> 100000 nM"

Incoming: I'd like to know its IC50. The molecule in question is O=C(OC1CCN(Cc2ccccc2)CC1)c1cc2c(C(F)(F)F)cc(-c3ccc(Cl)cc3Cl)cc2n1O [Example 59]
Outgoing: > 100000 nM

Incoming: Look up IC50 for this molecule: CC(=O)OC[C@H]1O[C@@H](On2c(C(=O)OC(C)C)cc3c(C(F)(F)F)cc(-c4ccc(Cl)cc4Cl)cc32)[C@H](OC(C)=O)[C@@H](OC(C)=O)[C@@H]1OC(C)=O [Example 44]
Outgoing: > 100000 nM

Incoming: Sample CC(C)(C)C1CCC(OC(=O)c2cc3c(C(F)(F)F)cc(-c4ccc(Cl)cc4Cl)cc3n2O)CC1 (stereo not shown) [Example 50] — what was its IC50?
Outgoing: 10 to 1000 nM

Incoming: Entry under review: COC(=O)c1cc2c(C(F)(F)F)cc(-c3ccccc3)c(-c3ccccc3)c2n1O [Example 14] . Reported IC50?
Outgoing: 1000 to 10000 nM

Incoming: Query: IC50; subject: CC(C)OC(=O)c1cc2c(C(F)(F)F)cc(-c3ccccc3)cc2n1O[C@@H]1O[C@H](CO)[C@@H](O)[C@H](O)[C@H]1O [Example 31]
Outgoing: 50000 to 500000 nM

Incoming: Dear colleague, I am looking for the recorded IC50 of the following molecule: O=C(OCc1ccc(-c2ccccc2)cc1)c1cc2c(C(F)(F)F)cc(-c3ccc(Cl)cc3Cl)cc2n1O [Example 56]
Outgoing: 10 to 1000 nM

Incoming: // lookup IC50 for O=C(OCc1ccccc1)c1cc2c(C(F)(F)F)cc(-c3ccc(Cl)cc3Cl)cc2n1O [Example 55]
Outgoing: 10 to 1000 nM

Incoming: Which IC50 value belongs to O=C(OCc1ccc([N+](=O)[O-])cc1)c1cc2c(C(F)(F)F)cc(-c3ccc(Cl)cc3Cl)cc2n1O [Example 61] ?
Outgoing: 10 to 1000 nM

Incoming: Query (molecule): COC(=O)c1cc2c(C(F)(F)F)cc(-c3ccccc3)cc2n1O[C@@H]1O[C@H](COC(C)=O)[C@@H](OC(C)=O)[C@H](OC(C)=O)[C@H]1OC(C)=O [Example 5] ; field requested: IC50
Outgoing: 50000 to 500000 nM

Incoming: Please report the recorded IC50 for CCCCOC(=O)c1cc2c(C(F)(F)F)cc(-c3ccc(Cl)cc3Cl)cc2n1O[C@@H]1O[C@H](CO)[C@@H](O)[C@H](O)[C@H]1O [Example 47] .
Outgoing: > 100000 nM

Incoming: I am curious: what IC50 value has been reported for CCCCOC(=O)c1cc2c(C(F)(F)F)cc(-c3ccccc3)cc2n1O[C@@H]1O[C@H](COC(C)=O)[C@@H](OC(C)=O)[C@H](OC(C)=O)[C@H]1OC(C)=O [Example 28] ?
Outgoing: > 100000 nM
